# System: REH
# Protocol Details: Cell proliferation, REH
# Format: cell-based
# Study Conditions: Homo sapiens; non-MLL-translocated line REH; FIG. 2
Endpoint Label: IC50 (µM)
Answers are plain numbers, in µM.

Incoming: Entry `CC(C)N(CCCNC(=O)Nc1ccc(C(C)(C)C)cc1)C[C@H]1O[C@@H](n2ccc3c(N)ncnc32)[C@H](O)[C@@H]1O` has what IC50?
Outgoing: 14

---

# Tested on: HL-60
# Protocol Details: Cell proliferation, HL-60
# Format: cell-based
# Study Conditions: Homo sapiens; non-MLL-translocated line HL-60; FIG. 2
Endpoint Label: IC50

Incoming: Hi! What's the reported IC50 for CC(C)N(CCCNC(=O)Nc1ccc(C(C)(C)C)cc1)C[C@H]1O[C@@H](n2ccc3c(N)ncnc32)[C@H](O)[C@@H]1O [EPZ004777] on HL-60?
Outgoing: > 50 µM
